assay.name: self-splicing fitness, log relative to wild type (ln ratio); higher = more splicing; Tetrahymena group I intron in knt gene, E. coli kanamycin selection, DiMSum; sequences stand for … in CUCUCU…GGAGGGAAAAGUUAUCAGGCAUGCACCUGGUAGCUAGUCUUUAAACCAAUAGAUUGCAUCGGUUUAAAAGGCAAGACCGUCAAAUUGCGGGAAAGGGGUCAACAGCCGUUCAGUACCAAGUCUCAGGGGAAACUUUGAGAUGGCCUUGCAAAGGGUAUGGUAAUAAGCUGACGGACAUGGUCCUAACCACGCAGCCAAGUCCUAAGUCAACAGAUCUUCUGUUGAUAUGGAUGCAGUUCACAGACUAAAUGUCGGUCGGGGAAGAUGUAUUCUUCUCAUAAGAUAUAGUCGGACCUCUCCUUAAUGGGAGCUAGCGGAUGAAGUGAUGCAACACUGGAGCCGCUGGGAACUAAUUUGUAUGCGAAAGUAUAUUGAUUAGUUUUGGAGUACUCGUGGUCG;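 further: selection with 25 µg/mL kanamycin versus none on LB agar overnight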
reported.conditions: 37 °C
As shown below, each of these sequences has a reported self-splicing fitness (ln) value.
Could you respond with only the numeric value?

Request: Tell me its self-splicing fitness (ln) given AAGAAGCAAUAUUACGCCUA as the entry.
Response: -0.209

Request: Output measured self-splicing fitness (ln) for this item: GUAGAGCAAUAUUACGUUUU
Response: -1.36

Request: Give reported self-splicing fitness (ln) value for GGGUAGCAAUAUUACGGCGU
Response: -0.386

Request: Give the measured self-splicing fitness (ln) for GACCAGCAAUAUUACGUGAC
Response: -1.7

Request: Indicate the recorded self-splicing fitness (ln) value for this sequence: CUAAAGCAAUAUUACGUAUC
Response: -2.22

Request: Return reported self-splicing fitness (ln). Input sequence: UGAGAGCAAUAUUACGUGCC
Response: -2.99

###

assay.name: self-splicing fitness, log relative to wild type (ln ratio); higher = more splicing; Tetrahymena group I intron in knt gene, E. coli kanamycin selection, DiMSum; sequences stand for … in CUCUCU…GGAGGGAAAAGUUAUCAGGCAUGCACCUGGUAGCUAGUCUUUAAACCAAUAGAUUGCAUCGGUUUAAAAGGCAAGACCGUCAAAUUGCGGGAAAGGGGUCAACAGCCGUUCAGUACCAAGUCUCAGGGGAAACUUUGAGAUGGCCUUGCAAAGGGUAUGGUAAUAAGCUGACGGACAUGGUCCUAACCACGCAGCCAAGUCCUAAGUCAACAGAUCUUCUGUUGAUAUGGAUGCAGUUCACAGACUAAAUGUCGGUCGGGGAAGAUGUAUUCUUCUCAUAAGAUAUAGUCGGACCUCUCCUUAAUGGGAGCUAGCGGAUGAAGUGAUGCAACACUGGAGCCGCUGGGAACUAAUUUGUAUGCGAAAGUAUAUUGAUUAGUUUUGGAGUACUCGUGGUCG
reported.conditions: 37 °C
self-splicing fitness (ln) vs -1: at or above is fulfilled, below is not fulfilled.

[[record]]
sequence_data = "UGCUAGCAAUAUUACGGUCG"
group_label = "fulfilled"

[[record]]
sequence_data = "UCUUAGCAAUAUUACGAGCG"
group_label = "fulfilled"

[[record]]
sequence_data = "GAGUAGCAAUAUUACGCGUA"
group_label = "fulfilled"

[[record]]
sequence_data = "UAACAGCAAUAUUACGGUAA"
group_label = "not fulfilled"

[[record]]
sequence_data = "UGGUAGCAAUAUUACGUUCG"
group_label = "fulfilled"


Request: self-splicing fitness (ln) >= -1 for AACAAGCAAUAUUACGCAGG ?
Response: not fulfilled

Request: Form field: self-splicing fitness (ln) at least -1? Entry: GACAAGCAAUAUUACGAUGA
Response: fulfilled

Request: Say whether CUUAAGCAAUAUUACGCAGA shows self-splicing fitness (ln) of -1 or more.
Response: not fulfilled

Request: Quick check: does UAAUAGCAAUAUUACGAUAA have self-splicing fitness (ln) greater than or equal to -1?
Response: not fulfilled

Request: Item UGGAAGCAAUAUUACGGUCA with self-splicing fitness (ln) of -1 or above?
Response: fulfilled

Request: Is the recorded value of self-splicing fitness (ln) equal to or greater than -1 for this sequence? CGAAAGCAAUAUUACGAUCC
Response: fulfilled

Request: I'd appreciate it if you could say whether AUUAAGCAAUAUUACGUUAG has self-splicing fitness (ln) at least equal to -1.
Response: not fulfilled

Request: Could you tell me if the measured self-splicing fitness (ln) of GAACAGCAAUAUUACGAUUU reaches -1 or more?
Response: fulfilled

Request: Assess whether reported self-splicing fitness (ln) for CACUAGCAAUAUUACGUCUA sits at -1 or higher.
Response: not fulfilled

###

assay.name: self-splicing fitness, log relative to wild type (ln ratio); higher = more splicing; Tetrahymena group I intron in knt gene, E. coli kanamycin selection, DiMSum; sequences stand for … in CUCUCU…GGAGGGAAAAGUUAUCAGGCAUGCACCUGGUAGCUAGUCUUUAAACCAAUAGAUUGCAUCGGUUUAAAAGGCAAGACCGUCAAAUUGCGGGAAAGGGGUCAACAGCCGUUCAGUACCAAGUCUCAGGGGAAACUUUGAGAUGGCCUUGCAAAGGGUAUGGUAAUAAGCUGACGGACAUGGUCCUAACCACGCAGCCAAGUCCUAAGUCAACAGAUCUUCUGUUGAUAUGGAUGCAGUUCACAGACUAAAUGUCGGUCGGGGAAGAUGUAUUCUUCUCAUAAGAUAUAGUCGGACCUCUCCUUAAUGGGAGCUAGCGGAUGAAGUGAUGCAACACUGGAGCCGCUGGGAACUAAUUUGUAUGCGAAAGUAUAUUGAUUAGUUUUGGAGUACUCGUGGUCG
reported.conditions: 30 °C
Recorded measurements of self-splicing fitness (ln), one per entry
Output spec: single numeric token, no unit.

Solved cases below.
[[record]]
sequence_data = "UGGUAGCAAUAUUACGAAUA"
observation_type = "self-splicing fitness (ln)"
value_measured = -0.911

[[record]]
sequence_data = "CGUAAGCAAUAUUACGCGGC"
observation_type = "self-splicing fitness (ln)"
value_measured = -2.84

[[record]]
sequence_data = "CUCUAGCAAUAUUACGCGAG"
observation_type = "self-splicing fitness (ln)"
value_measured = -3.63


Request: Give reported self-splicing fitness (ln) value for ACAUAGCAAUAUUACGGCCC
Response: -1.29

Request: Answer with the recorded self-splicing fitness (ln) for the sequence listed here: AACCAGCAAUAUUACGAAUU
Response: -0.517

Request: # return recorded self-splicing fitness (ln) for input UCUUAGCAAUAUUACGUUCG
Response: -2.21

Request: Using known records, supply self-splicing fitness (ln) for GCCGAGCAAUAUUACGGACC
Response: -2.47

Request: Find the measured self-splicing fitness (ln) of ACCGAGCAAUAUUACGUAAG and report it.
Response: -2.67

Request: In one line, give reported self-splicing fitness (ln) of the entry GAAUAGCAAUAUUACGCCAG .
Response: -2.58

Request: Quickly give me recorded self-splicing fitness (ln) for UAACAGCAAUAUUACGUGUA
Response: -1.6

Request: Give the reported self-splicing fitness (ln) for this sequence. GUGAAGCAAUAUUACGAGGC
Response: -2.59

Request: Dear colleague, please send me the reported self-splicing fitness (ln) for AUGUAGCAAUAUUACGAGGU when you can.
Response: -2.28

Request: Check the records and state self-splicing fitness (ln) for GGUUAGCAAUAUUACGGUUC
Response: -0.571

Request: Consider the sequence CUCUAGCAAUAUUACGCUCU . State its measured self-splicing fitness (ln).
Response: -3.22

Request: Provide self-splicing fitness (ln) value for the following sequence: UAGUAGCAAUAUUACGAGGC
Response: -3.45

###

assay.name: self-splicing fitness, log relative to wild type (ln ratio); higher = more splicing; Tetrahymena group I intron in knt gene, E. coli kanamycin selection, DiMSum; sequences stand for … in CUCUCU…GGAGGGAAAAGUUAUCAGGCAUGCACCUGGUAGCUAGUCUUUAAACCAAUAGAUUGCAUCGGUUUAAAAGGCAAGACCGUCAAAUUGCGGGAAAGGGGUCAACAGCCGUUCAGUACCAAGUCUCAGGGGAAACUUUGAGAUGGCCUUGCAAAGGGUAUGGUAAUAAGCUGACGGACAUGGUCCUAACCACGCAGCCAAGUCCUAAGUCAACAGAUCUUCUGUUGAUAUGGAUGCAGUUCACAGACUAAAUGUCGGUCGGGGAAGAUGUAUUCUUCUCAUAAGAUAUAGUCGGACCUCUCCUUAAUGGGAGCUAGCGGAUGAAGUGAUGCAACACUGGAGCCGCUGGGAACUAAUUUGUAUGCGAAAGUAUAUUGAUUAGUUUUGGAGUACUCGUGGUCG
reported.conditions: 37 °C
observation.type: self-splicing fitness (ln)
Please give only the number in your answer, with no unit.

Consider the reported self-splicing fitness (ln) for these sequences:
[[record]]
sequence_data = "GAAAAGCAAUAUUACGUUAU"
observation_type = "self-splicing fitness (ln)"
value_measured = -0.868

[[record]]
sequence_data = "GUUUAGCAAUAUUACGAGAG"
observation_type = "self-splicing fitness (ln)"
value_measured = -2

[[record]]
sequence_data = "AUGUAGCAAUAUUACGAAAC"
observation_type = "self-splicing fitness (ln)"
value_measured = -1.76

[[record]]
sequence_data = "GAACAGCAAUAUUACGGAGG"
observation_type = "self-splicing fitness (ln)"
value_measured = -2.54

[[record]]
sequence_data = "CCUUAGCAAUAUUACGUUGG"
observation_type = "self-splicing fitness (ln)"
value_measured = -3.32


Request: Please report self-splicing fitness (ln) for the following sequence: GCCAAGCAAUAUUACGUAAG
Response: -0.513

Request: State its self-splicing fitness (ln) for this sequence: GCGAAGCAAUAUUACGGAGA
Response: -2.87

Request: Please supply the value of reported self-splicing fitness (ln) for the item UUAAAGCAAUAUUACGCCGA
Response: 0.491

Request: Report self-splicing fitness (ln) for CAUUAGCAAUAUUACGGCAA
Response: -3.22

Request: Entry ACGUAGCAAUAUUACGUACC needs its self-splicing fitness (ln) filled in; supply it.
Response: -0.541

Request: For the sequence GGACAGCAAUAUUACGGGAG , give its measured self-splicing fitness (ln) value.
Response: -1.28

Request: Give reported self-splicing fitness (ln) value for GACUAGCAAUAUUACGUACA
Response: -0.0348

Request: Identify the reported self-splicing fitness (ln) for the following entry. UGCCAGCAAUAUUACGUGUC
Response: -1.04
